// provenance: PubChem BioAssay AID1259407

Tested on: CCRIS mutagenicity, Ames/micronucleus/aberration tests
Experiment Description: CCRIS mutagenicity studies
Assay Setup: Test System: AMES SALMONELLA TYPHIMURIUM; Strain/Indicator: TA100; Metabolic Activation: HAMSTER, LIVER, S-9, AROCLOR 1254; Method: STANDARD PLATE
Active and inactive are the calls of the source. The rule behind the calls is not given here.
Reply using exactly one outcome from active, inactive

Status in this test for `O.O.O.O=C([O-])[C@H]([O-])[C@@H]([O-])C(=O)[O-].O=C([O-])[C@H]([O-])[C@@H]([O-])C(=O)[O-].[K+].[K+].[Sb+3].[Sb+3]` ?
inactive

Kindly provide the recorded test outcome for the following compound: CCCCC(CC)COP(=O)(OCC(CC)CCCC)OCC(CC)CCCC (stereo unspecified)
inactive

Just curious, what result did `C[C@@H]1CC[C@@]2(OC1)O[C@H]1C[C@H]3[C@@H]4CC=C5C[C@@H](O)CC[C@]5(C)[C@H]4CC[C@]3(C)[C@H]1[C@@H]2C` get here?
inactive

* * *

System: CCRIS mutagenicity, Ames/micronucleus/aberration tests
Experiment Description: CCRIS mutagenicity studies
Assay Setup: Test System: AMES SALMONELLA TYPHIMURIUM; Strain/Indicator: TA97; Metabolic Activation: NONE; Method: STANDARD PLATE
Calls of active or inactive are those of the source. The rule behind the calls is not given here.
Reported Endpoint: mutagenic call

| Compound | Tested On | Reported Result |
| --- | --- | --- |
| CCC(CCC(C)O)COC(=O)c1ccccc1C(=O)O (stereo not drawn) | CCRIS mutagenicity, Ames/micronucleus/aberration tests | inactive; negative |
| C[n+]1ccn(CCS(C)(=O)=O)c1/C=N/O | CCRIS mutagenicity, Ames/micronucleus/aberration tests | inactive; negative |
| O=C/C(=C(/Cl)C(=O)O)C(Cl)Cl | CCRIS mutagenicity, Ames/micronucleus/aberration tests | inactive; negative |

* * *

Tested on: CCRIS mutagenicity, Ames/micronucleus/aberration tests
Experiment Description: CCRIS mutagenicity studies
Assay Setup: Test System: AMES SALMONELLA TYPHIMURIUM; Strain/Indicator: TA98; Metabolic Activation: NONE; Method: STANDARD PLATE
Calls of active or inactive are those of the source. The rule behind the calls is not given here.
Hi! Could you answer with just one of these? yes (1) = active, no (0) = inactive

Record lookup: outcome of this test for c1scc2c1-c1cscc1C1OC21 (configuration not stated) ?
yes (1)

What is the recorded call for this compound in the test? `Cc1cccc(O)c1N`
no (0)

So what was the verdict on `CC(=O)Oc1ccccc1C(=O)O` in this test?
no (0)

* * *

Tested on: CCRIS mutagenicity, Ames/micronucleus/aberration tests
Experiment Description: CCRIS mutagenicity studies
Assay Setup: Test System: AMES SALMONELLA TYPHIMURIUM; Strain/Indicator: TA100; Metabolic Activation: RAT, LIVER, S-9, AROCLOR 1254 (10%); Method: STANDARD PLATE
Calls of active or inactive are those of the source. The rule behind the calls is not given here.
Respond only with the outcome that fits, drawn from 1 (yes) (active), 0 (no) (inactive)

| Molecule | Label Class |
| --- | --- |
| O=C1CCC(=O)N1Br | 1 (yes) |
| O=C([O-])c1ccc2ccccc2c1.[Mn+2].[O-]C(O)c1ccc2ccccc2c1 | 0 (no) |
| N#Cc1cc(Br)c(O)c(Br)c1 | 0 (no) |

Write down the call the test reported for this molecule. Item: `O=C1c2ccc3nc(-c4ccccc4)sc3c2C(=O)c2ccc3nc(-c4ccccc4)sc3c21`
0 (no)

Which outcome did this test record for the molecule `C=C[Si](C)(C)N[Si](C)(C)C=C` ?
0 (no)
